Data provenance is PubChem BioAssay (NCI).

# Test system: K-562 leukemia
# PROTOCOL NOTES: NCI-60 one-dose screen, 48 h (100 = growth as untreated, 0 = no growth, -100 = all killed)
# EXPERIMENTAL CONDITIONS: 10 µM unless noted
The panel holds about 83,000 compounds, 20% with a hit somewhere; the sample as a whole holds those more often.
Param label: returns met when growth < 20%, returns not met otherwise, including exact equality.

COMPOUND	EXPERIMENTAL TARGET	CLASSIFICATION
Cc1ccc(Nn2c(SCC(=O)Nc3nc(-c4ccccc4)cs3)nc(C)c2C)cc1	K-562 leukemia	not met
Cn1ccnc1C(=O)/C=C/c1ccc(C(=O)Nc2ccc(Cl)cc2)cc1	K-562 leukemia	met
CCOC(=O)c1csc(NC(=O)COc2ccc(/C=C3\Oc4ccccc4C3=O)cc2)n1	K-562 leukemia	not met

A record lists `N=C(N)c1ccc(-c2ccc(-c3ccc(Cl)cc3Cl)s2)cc1` . Is its growth below 20%?
met

Lab note: growth threshold 20%. Does this compound come in strictly under it? `NC(N)=NCCCCCNc1noc(Cc2c[nH]c3cc(Br)ccc23)n1`
not met

State whether 20% exceeds growth recorded for `O=C(Nc1cccc2ccccc12)NC1CC1` .
not met
